target.entity: HLA-B*54:01
procedure.text: IEDB peptide-MHC binding, purified MHC/competitive/radioactivity; filed as Kd, often an IC50 or EC50 that approximates it; bounds were set here for any values at or beyond the usual limits of such assays
run.conditions: source organism: Mammarenavirus choriomeningitidis
Kd values for the sequences below.
Kindly provide the numeric value in µM only, without the unit symbol.

Given item LPHIIDEVM , the value recorded as its Kd is 9.01

Given item CPFLFLMLL , the value recorded as its Kd is 0.142

###

target.entity: HLA-A*69:01
procedure.text: IEDB peptide-MHC binding, purified MHC/direct/fluorescence; filed as Kd, often an IC50 or EC50 that approximates it; bounds were set here for any values at or beyond the usual limits of such assays
run.conditions: source organism: Yersinia pestis Nepal516
measure.name: Kd

> print(dat)
         seq  assay.value
1  AFASLQDML      ≥ 20 µM

Turning now to a further record.
Given item YLHRDIFDI , the value recorded as its Kd is ≥ 20 µM

###

target.entity: HLA-B*18:01
procedure.text: IEDB peptide-MHC binding, purified MHC/competitive/radioactivity; filed as Kd, often an IC50 or EC50 that approximates it; bounds were set here for any values at or beyond the usual limits of such assays
run.conditions: source organism: Lymphocytic choriomeningitis virus (strain Armstrong)
measure.name: Kd

Given item ADQAIANGV , the value recorded as its Kd is ≥ 33.8 µM

###

pKd values for the sequences below.
target.entity: HLA-B*44:03
procedure.text: IEDB peptide-MHC binding, purified MHC/competitive/radioactivity; filed as Kd, often an IC50 or EC50 that approximates it; bounds were set here for any values at or beyond the usual limits of such assays
run.conditions: source organism: Dengue virus 4 Philippines/H241/1956
Expect pKd as a plain number equal to -log10 of the molar concentration.

> print(dat)
          seq  assay.value
1  NDMISYGGGW         7.15

Turning now to a further record.
Given item NEMILMKMK , the value recorded as its pKd is 5.54

###

target.entity: HLA-A*32:01
procedure.text: IEDB peptide-MHC binding, purified MHC/competitive/radioactivity; filed as Kd, often an IC50 or EC50 that approximates it; bounds were set here for any values at or beyond the usual limits of such assays
run.conditions: source organism: Lymphocytic choriomeningitis virus (strain WE)
pKd: −log10 of the molar value.
measure.name: pKd

Given item MTKEASREY , the value recorded as its pKd is ≤ 4.25

###

target.entity: HLA-A*30:01
procedure.text: IEDB peptide-MHC binding, purified MHC/competitive/fluorescence; filed as Kd, often an IC50 or EC50 that approximates it; bounds were set here for any values at or beyond the usual limits of such assays
run.conditions: source organism: Mycobacterium tuberculosis C
measure.name: pKd
Expect pKd as a plain number equal to -log10 of the molar concentration.

Given item TIHLATAPK , the value recorded as its pKd is 9.70

###

target.entity: HLA-B*15:17
procedure.text: IEDB peptide-MHC binding, purified MHC/direct/fluorescence; filed as Kd, often an IC50 or EC50 that approximates it; bounds were set here for any values at or beyond the usual limits of such assays
run.conditions: source organism: Salmonella enterica subsp. enterica serovar Typhimurium
pKd: −log10 of the molar value.
measure.name: pKd

Given item WPVMQWLTA , the value recorded as its pKd is ≤ 4.70

###

target.entity: HLA-A*30:01
procedure.text: IEDB peptide-MHC binding, purified MHC/competitive/radioactivity; filed as Kd, often an IC50 or EC50 that approximates it; bounds were set here for any values at or beyond the usual limits of such assays
run.conditions: source organism: Mammarenavirus guanaritoense
measure.name: Kd

Given item ESALNISGY , the value recorded as its Kd is ≥ 67.3 µM

###

target.entity: HLA-B*07:02
procedure.text: IEDB peptide-MHC binding, purified MHC/direct/fluorescence; filed as Kd, often an IC50 or EC50 that approximates it; bounds were set here for any values at or beyond the usual limits of such assays
run.conditions: source organism: Influenza A virus (A/chicken/Vietnam/5/2003(H5N1))
measure.name: Kd

Kd for HLA-B*07:02 with input QTYDWTLNR equals ≥ 20 µM

###

target.entity: HLA-B*51:01
procedure.text: IEDB peptide-MHC binding, purified MHC/competitive/radioactivity; filed as Kd, often an IC50 or EC50 that approximates it; bounds were set here for any values at or beyond the usual limits of such assays
run.conditions: source organism: Mammarenavirus brazilense
measure.name: Kd

A selection of reference data follows.
> print(dat)
         seq  assay.value
1  LPDALLFTL      3.33 µM
2  QPGLLSYVI      2.26 µM

Given item NPIVLHNGM , the value recorded as its Kd is ≥ 32.4 µM

###

target.entity: HLA-A*01:01
procedure.text: IEDB peptide-MHC binding, purified MHC/competitive/fluorescence; filed as Kd, often an IC50 or EC50 that approximates it; bounds were set here for any values at or beyond the usual limits of such assays
run.conditions: source organism: Homo sapiens
measure.name: Kd

Given item SMIYFFHHY , the value recorded as its Kd is ≥ 20 µM

###

target.entity: HLA-A*02:01
procedure.text: IEDB peptide-MHC binding, purified MHC/competitive/fluorescence; filed as Kd, often an IC50 or EC50 that approximates it; bounds were set here for any values at or beyond the usual limits of such assays
run.conditions: source organism: Entamoeba dispar SAW760
pKd: −log10 of the molar value.
measure.name: pKd

Given item KGFFRVFKK , the value recorded as its pKd is ≤ 4.70

###

target.entity: HLA-B*40:01
procedure.text: IEDB peptide-MHC binding, purified MHC/competitive/radioactivity; filed as Kd, often an IC50 or EC50 that approximates it; bounds were set here for any values at or beyond the usual limits of such assays
run.conditions: source organism: Mammarenavirus brazilense
measure.name: Kd (µM)
Kindly provide the numeric value in µM only, without the unit symbol.

Given item GDNEIEYGF , the value recorded as its Kd is 9.48

###

target.entity: HLA-B*18:01
procedure.text: IEDB peptide-MHC binding, purified MHC/direct/fluorescence; filed as Kd, often an IC50 or EC50 that approximates it; bounds were set here for any values at or beyond the usual limits of such assays
run.conditions: source organism: Influenza A virus (A/chicken/Vietnam/5/2003(H5N1))
measure.name: Kd

Given item QTYDWTLNR , the value recorded as its Kd is ≥ 20 µM

###

target.entity: HLA-A*24:02
procedure.text: IEDB peptide-MHC binding, purified MHC/direct/fluorescence; filed as Kd, often an IC50 or EC50 that approximates it; bounds were set here for any values at or beyond the usual limits of such assays
run.conditions: source organism: Influenza A virus (A/goose/Hong Kong/8/1976(H1N1))
measure.name: Kd

Given item KTTYWWDGL , the value recorded as its Kd is ≥ 20 µM

###

target.entity: HLA-A*02:12
procedure.text: IEDB peptide-MHC binding, purified MHC/direct/fluorescence; filed as Kd, often an IC50 or EC50 that approximates it; bounds were set here for any values at or beyond the usual limits of such assays
run.conditions: source organism: Yersinia pestis CA88-4125
pKd: −log10 of the molar value.
measure.name: pKd

Given item FLPPQIPVI , the value recorded as its pKd is ≥ 9.00

###

target.entity: HLA-B*15:09
procedure.text: IEDB peptide-MHC binding, purified MHC/direct/fluorescence; filed as Kd, often an IC50 or EC50 that approximates it; bounds were set here for any values at or beyond the usual limits of such assays
run.conditions: source organism: Vibrio cholerae V52
measure.name: Kd

Given item REVFDYLLP , the value recorded as its Kd is ≥ 20 µM

###

target.entity: HLA-A*02:01
procedure.text: IEDB peptide-MHC binding, purified MHC/competitive/fluorescence; filed as Kd, often an IC50 or EC50 that approximates it; bounds were set here for any values at or beyond the usual limits of such assays
run.conditions: source organism: Vaccinia virus Copenhagen
Kd values for the sequences below.
Kindly provide the numeric value in nM only, without the unit symbol.

> print(dat)
         seq  assay.value
1  CLTEYILWV         10.7

Turning now to a further record.
Given item SLYKYLLLR , the value recorded as its Kd is 555

###

target.entity: HLA-A*02:11
procedure.text: IEDB peptide-MHC binding, purified MHC/direct/fluorescence; filed as Kd, often an IC50 or EC50 that approximates it; bounds were set here for any values at or beyond the usual limits of such assays
run.conditions: source organism: Vibrio vulnificus CMCP6
measure.name: Kd

Given item EMSLADYLY , the value recorded as its Kd is ≥ 20 µM

###

target.entity: HLA-A*24:03
procedure.text: IEDB peptide-MHC binding, purified MHC/direct/fluorescence; filed as Kd, often an IC50 or EC50 that approximates it; bounds were set here for any values at or beyond the usual limits of such assays
run.conditions: source organism: Influenza A virus (A/tiger/Thailand/CU-T6/04(H5N1))
measure.name: Kd
Number first, unit second: that is the form wanted.

Given item TYQWIIRNW , the value recorded as its Kd is 2.5 nM
